The reported numbers originate from the array DNA melting data of Ke et al. (doi:10.1101/2024.01.08.574731).

assay: melting temperature; fluorescence melt of hairpins on a sequencing array, two-state fit, raised by 9.35 °C to match UV melts; conditions: sodium 0.088 M
// classify: if (Tm < 50 °C) fulfilled else not fulfilled

Consider GCGTACGGAAACGTGCGC (((.(((....))).))) . Does its Tm lie strictly below 50 °C? not fulfilled

Consider GAAGCTGGAAACGGCTTC (((((.(....).))))) . Does its Tm lie strictly below 50 °C? not fulfilled

Consider GTCTCTGGAAACAGAGAC (((((((....))))))) . Does its Tm lie strictly below 50 °C? not fulfilled

Consider GATCGTAAGCACGATC ((((((....)))))) . Does its Tm lie strictly below 50 °C? not fulfilled

Consider GTAGACGAAAGTCGCTAC ((((((....)))..))) . Does its Tm lie strictly below 50 °C? fulfilled

Consider GATCAAAACTTTGATC ((((((....)))))) . Does its Tm lie strictly below 50 °C? fulfilled

Consider GCGGTGGGAAACCACCAC (.(((((....))))).) . Does its Tm lie strictly below 50 °C? fulfilled

Consider GATCTTAGGAAGATC ((((((...)))))) . Does its Tm lie strictly below 50 °C? fulfilled

Consider GATCGGGTACCGATC ((((((...)))))) . Does its Tm lie strictly below 50 °C? not fulfilled

Consider GCGCAGCGAAAGCATCGC (((..((....))..))) . Does its Tm lie strictly below 50 °C? fulfilled

Consider GCAAAGCGAAAGCATCGC ((.(.((....)).).)) . Does its Tm lie strictly below 50 °C? fulfilled

Consider GATCAGTGAACTGATC ((((((....)))))) . Does its Tm lie strictly below 50 °C? not fulfilled

Consider GAAACACCGAAAGGTTTC (((..(((....)))))) . Does its Tm lie strictly below 50 °C? fulfilled

Consider GCGGGTGGAAACACCTGC ((.((((....)))).)) . Does its Tm lie strictly below 50 °C? not fulfilled

Consider GCGGTAGGAAACCACCGC (((((.(....).))))) . Does its Tm lie strictly below 50 °C? not fulfilled

Consider GCGAAGCGAAAGCTTTGC ((.((((....)))).)) . Does its Tm lie strictly below 50 °C? not fulfilled

Consider GGTGGCCGAAAGGCAACC (((.(((....))).))) . Does its Tm lie strictly below 50 °C? not fulfilled

Consider GCAAGGCGAAAGCATGGC ((.(.((....)).).)) . Does its Tm lie strictly below 50 °C? fulfilled

Consider GACAAGCGAAAGCTAGTC (((.(((....))).))) . Does its Tm lie strictly below 50 °C? not fulfilled

Consider GTCGCCCGAAAGGGGAC (((.(((....)))))) . Does its Tm lie strictly below 50 °C? not fulfilled

Consider GTGGATGGAAACATCTGC (..((((....))))..) . Does its Tm lie strictly below 50 °C? fulfilled

Consider GCAGCCGAAAGGCCGTGC ((((((....)))..))) . Does its Tm lie strictly below 50 °C? fulfilled

Consider GCTTCGGAAACGAAGC ((((((....)))))) . Does its Tm lie strictly below 50 °C? not fulfilled

Consider GTCCTTCGAAAGAAGAC (((.(((....)))))) . Does its Tm lie strictly below 50 °C? fulfilled

Consider GCCCGATCGAAAGATGGC (((..(((....)))))) . Does its Tm lie strictly below 50 °C? fulfilled

Consider GAGAAACGAAAGTTACTC (((.(((....))).))) . Does its Tm lie strictly below 50 °C? fulfilled

Consider GCAGATGCGAAAGCATGC (((..(((....)))))) . Does its Tm lie strictly below 50 °C? fulfilled

Consider CGTCCGGAAACGGACACG ((((((....)))..))) . Does its Tm lie strictly below 50 °C? fulfilled

Consider GATCCTAAGAGGATC ((((((...)))))) . Does its Tm lie strictly below 50 °C? not fulfilled

Consider GAAAGCCGAAAGGCCTTC (((.(((....))).))) . Does its Tm lie strictly below 50 °C? fulfilled

Consider GTCAATGGAAACATTGAC (((((((....))))))) . Does its Tm lie strictly below 50 °C? not fulfilled

Consider CATTGGAAACAATG (((((....))))) . Does its Tm lie strictly below 50 °C? fulfilled

Consider GCGATTGTCGC ((((...)))) . Does its Tm lie strictly below 50 °C? fulfilled

Consider GTCAACGAAAGTTTGGAC ((((((....)))..))) . Does its Tm lie strictly below 50 °C? fulfilled

Consider GCCTGTCCGAAAGGAGGC (((..(((....)))))) . Does its Tm lie strictly below 50 °C? fulfilled

Consider GCGGTGCGAAAGCGCGGC ((.(.((....)).).)) . Does its Tm lie strictly below 50 °C? not fulfilled

Consider GTTTTCCCGAAAGGGAAC (((..(((....)))))) . Does its Tm lie strictly below 50 °C? fulfilled

Consider GCTCTGCGAAAGCTAAGC (((..((....))..))) . Does its Tm lie strictly below 50 °C? fulfilled

Consider CGCGCGGAAACGCTAGCG ((((((....)))..))) . Does its Tm lie strictly below 50 °C? not fulfilled

Consider GCATGGCGAAAGCGAGGC ((.(.((....)).).)) . Does its Tm lie strictly below 50 °C? fulfilled

Consider GAGCCCCGAAAGGGTCTC (((.(((....))).))) . Does its Tm lie strictly below 50 °C? not fulfilled

Consider GATCAATGAGTTGATC ((((((....)))))) . Does its Tm lie strictly below 50 °C? fulfilled

Consider GATCACATAGGTGATC ((((((....)))))) . Does its Tm lie strictly below 50 °C? not fulfilled

Consider GACAAGGGAAACCTTGCC (.(((((....))))).) . Does its Tm lie strictly below 50 °C? fulfilled

Consider GATCGAGGAAACTTGGTC ((.(.((....)).).)) . Does its Tm lie strictly below 50 °C? fulfilled

====

assay: folding enthalpy; higher = less favourable; fluorescence melt of hairpins on a sequencing array, two-state fit; conditions: sodium 0.088 M
Entry flag: t if folding enthalpy reaches -30 kcal/mol; f if it does not.

Is the recorded value of folding enthalpy equal to or greater than -30 kcal/mol for this sequence? GTCGCAGGAAACTGTGAC (((.(((....))).))) f

Is the recorded value of folding enthalpy equal to or greater than -30 kcal/mol for this sequence? GCGGAAGACCGC ((((....)))) t

Is the recorded value of folding enthalpy equal to or greater than -30 kcal/mol for this sequence? GTCACACGAAAGTGAGAC (((.(((....))).))) f

Is the recorded value of folding enthalpy equal to or greater than -30 kcal/mol for this sequence? GCATTGCGAAAGCTCTGC (((..((....))..))) t

Is the recorded value of folding enthalpy equal to or greater than -30 kcal/mol for this sequence? GCTATGCGAAAGCCCAGC (((..((....))..))) t

Is the recorded value of folding enthalpy equal to or greater than -30 kcal/mol for this sequence? GCGGATGGAAACGTTCGC (((.(.(....).).))) t

====

Would you kindly list folding enthalpy for each of these sequences?
assay: folding enthalpy; higher = less favourable; fluorescence melt of hairpins on a sequencing array, two-state fit; details: sodium 0.088 M
A number alone suffices; assume kcal/mol.

Give a short answer stating reported folding enthalpy for GCGTGGACACGC ((((....)))) . -25.5

Give a short answer stating reported folding enthalpy for GCAAGTCGAAAGACGTGC (((.(((....))).))) . -39.8

Give a short answer stating reported folding enthalpy for GACTCCGAAAGGAGTGTC ((((((....)))..))) . -12.3

Give a short answer stating reported folding enthalpy for GAAGCCCGAAAGGGATTC (((.(((....))).))) . -42.4

Give a short answer stating reported folding enthalpy for GATCGTGTGAACGATC ((((((....)))))) . -39.2

Give a short answer stating reported folding enthalpy for GTGATCGAAAGATGTCAC ((((((....)))..))) . -13.7

Give a short answer stating reported folding enthalpy for GATCCGGGAAACCAGATC ((((.((....)).)))) . -27.8

Give a short answer stating reported folding enthalpy for GCTCAGCGAAAGCAAAGC (((..((....))..))) . -13.6

Give a short answer stating reported folding enthalpy for GAGCACGGAAACGTGCCC (.(((((....))))).) . -6.99

Give a short answer stating reported folding enthalpy for GGGATTGCGAAAGCACCC (((..(((....)))))) . -14.5

Give a short answer stating reported folding enthalpy for GTTGCGTCGAAAGACAAC (((..(((....)))))) . -13.8

Give a short answer stating reported folding enthalpy for GATCATAGCCATGATC ((((((....)))))) . -44.5
